protocolDescription: Toxicity liver stage against HepG2, at 10uM
Format: cell-based
Design: test concentration 10 uM, cell line HepG2-A16-CD81EGFP
measurementContext: human, HepG2-A16-CD81EGFP cells; read-out: INHIBITION
Recorded cytotoxicity at 10 µM values for a group of compounds are listed next.
Numbers only; they are read as %.

- CNC(=O)[C@@H]1CCO[C@@H]2CCN(C3CCOCC3)C[C@@H]21: 6.67

// query Data request, read-out cytotoxicity at 10 µM, for O=C(NCc1nnc2n1CCC2)c1cn(-c2ccccc2Br)nn1
// result 3.37

// query Data request, read-out cytotoxicity at 10 µM, for COc1cccc(CNC(CN2CCN(C)CC2)c2ccccc2)c1 (stereo unspecified)
// result 12.5

// query Data request, read-out cytotoxicity at 10 µM, for CS(=O)(=O)NCc1nnc2n1CCN(Cc1cccnc1)C2
// result -70.9

// query Data request, read-out cytotoxicity at 10 µM, for Cc1ncc(C(=O)N2CC[C@@]3(O)CCN(C(=O)N(C)C)C[C@H]3C2)cn1
// result -46.3

// query Data request, read-out cytotoxicity at 10 µM, for COc1cc(C(=O)NS(=O)(=O)c2cccc(C#N)c2)cc(OC)c1Br
// result -9.67

// query Data request, read-out cytotoxicity at 10 µM, for Cc1cc(C(F)(F)F)c2c(=O)n(Cc3cc(C)on3)n(C)c2n1
// result 1.46

// query Data request, read-out cytotoxicity at 10 µM, for COc1cc(OC)cc(C2NC(=O)CN2Cc2ccc(Br)cc2)c1 (stereo unspecified)
// result -6.67

// query Data request, read-out cytotoxicity at 10 µM, for CNC(=O)C1CN(C(C)C)CCN1c1ncccn1 (stereo unspecified)
// result 1.22

// query Data request, read-out cytotoxicity at 10 µM, for CC(C)N1CCC(c2n[nH]cc2-c2ccnc(N)c2)C1 (stereo unspecified)
// result 2.16

// query Data request, read-out cytotoxicity at 10 µM, for CN(Cc1ncc(-c2ccccc2)o1)C1CCCN(c2cccnn2)C1 (stereo unspecified)
// result -29.1
